# System: human erythrocytes
# Type: cell-based
# stated.conditions: pH 7.4
Numbered stars: 1 amine (or outer) side, 2 acyl side, 3 side chain; on linkers, the order of the positions; unused ones are H or OH. Square brackets hold non-standard residues; d marks the D form. Peptide text beside a SMILES is read from it. * marks the point of attachment. X1 = COc1ccc2c(CC(N[*:1])C(=O)[*:2])cc(=O)oc2c1; X2 = O=c1cc(C*)c2cc(Br)c(O)cc2o1
Criterion: Hemolysis at 100 µM strictly less than 9%. Met: Criterion met. Not met: Criterion not met.

Use these answered entries as a reference point.
N=C(N)NCCC[C@@H]1NC(=O)[C@H](CCCNC(=N)N)NC(=O)[C@H](Cc2c[nH]c3ccccc23)NC(=O)[C@H](CSCc2cc(=O)oc3cc(O)c(Br)cc23)NC(=O)[C@H](Cc2c[nH]c3ccccc23)NC(=O)[C@H](CCCNC(=N)N)NC1=O [cW[S-Cu]W] (cyclo(RRRWC(X2)W)): Criterion not met
N=C(N)NCCC[C@@H]1NC(=O)[C@H](CCCCN)NC(=O)[C@H](CCCCN)NC(=O)[C@H](Cc2c[nH]c3ccccc23)NC(=O)[C@H](Cc2ccccc2)NC(=O)[C@H](Cc2c[nH]c3ccccc23)NC1=O [cKKR] (cyclo(KKRWFW)): Criterion met
N=C(N)NCCC[C@@H]1NC(=O)[C@H](Cc2c[nH]c3ccccc23)NC(=O)[C@H](Cc2ccccc2)NC(=O)[C@H](Cc2c[nH]c3ccccc23)NC(=O)[C@H](CCCCN)NC(=O)[C@H](CCCCN)NC1=O [cRKK] (cyclo(RKKWFW)): Criterion not met
COc1ccc2c(CC3NC(=O)[C@H](Cc4c[nH]c5ccccc45)NC(=O)[C@H](CCCNC(=N)N)NC(=O)[C@H](CCCNC(=N)N)NC(=O)[C@H](CCCNC(=N)N)NC(=O)[C@H](Cc4c[nH]c5ccccc45)NC3=O)cc(=O)oc2c1 (stereo partly shown) [cW[Cu]W] (cyclo(RRRW[X1]W)): Criterion not met
N=C(N)NCCC[C@@H]1NC(=O)[C@H](CCCCN)NC(=O)[C@H](Cc2c[nH]c3ccccc23)NC(=O)[C@H](CSCc2cc(=O)oc3cc(O)c(Br)cc23)NC(=O)[C@H](Cc2c[nH]c3ccccc23)NC(=O)[C@H](CCCCN)NC1=O [cR2[S-Cu]] (cyclo(KRKWC(X2)W)): Criterion met

Read the next record carefully.
Q: Hello, is Hemolysis at 100 µM of the following molecule strictly smaller than 9%? N=C(N)NCCC[C@@H]1NC(=O)[C@H](CCCNC(=N)N)NC(=O)[C@H](Cc2c[nH]c3ccccc23)NC(=O)[C@H](Cc2ccccc2)NC(=O)[C@H](Cc2c[nH]c3ccccc23)NC(=O)[C@H](CCCNC(=N)N)NC1=O [cWFW] (cyclo(FWRRRW); ring closure inferred)
A: Criterion met
